Just for reference, patent US20060099648A1 is where these values come from.

Assign ΔF (%) to each entry below.
target: Human IgG (Calbiochem; San Diego Calif.) (human); test: IgG displaced from peptide pin; competitor MSP1-19
One number for each entry, in %.

Solved cases (3 shown):
| BINDER | ΔF (%) |
| --- | --- |
| KCTEE [Peptide# 61] | 6 |
| FDGIF [Peptide# 87] | 9 |
| YPLFD [Peptide# 84] | 12 |

Required: ΔF (%), one value per binder below.
1. EEDSG [Peptide# 64]
2. GCDAD [Peptide# 55]
3. NGGCD [Peptide# 53]
4. DSGSN [Peptide# 66]

Output:
[7, 7, 10, 9]

Required: ΔF (%), one value per binder below.
1. EDSGS [Peptide# 65]
2. CTKPD [Peptide# 78]

Output:
1: 7; 2: 10
